Consider the following compounds; for each one, report its pKi.
# tgt: 5-hydroxytryptamine receptor 1A (Rattus norvegicus, UniProt P19327)
# Sequence (P19327 whole entry): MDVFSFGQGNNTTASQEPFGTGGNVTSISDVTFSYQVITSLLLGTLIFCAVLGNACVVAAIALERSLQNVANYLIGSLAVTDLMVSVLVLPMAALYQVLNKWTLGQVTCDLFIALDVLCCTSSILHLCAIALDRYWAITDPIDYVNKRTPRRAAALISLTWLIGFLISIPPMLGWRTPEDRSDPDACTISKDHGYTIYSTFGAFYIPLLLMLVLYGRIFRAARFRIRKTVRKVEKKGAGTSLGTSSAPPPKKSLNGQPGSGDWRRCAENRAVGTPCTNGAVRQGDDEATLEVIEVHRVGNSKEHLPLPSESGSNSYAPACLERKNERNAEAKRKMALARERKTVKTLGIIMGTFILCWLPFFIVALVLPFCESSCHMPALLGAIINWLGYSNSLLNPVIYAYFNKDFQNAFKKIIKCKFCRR
API: returns pKi as number; meaning -log10 of concentration in mol/L.

Query: Param item = `Cc1[nH]c2ccccc2c1C1CCN(CCCCn2c(=O)c(-c3ccccc3Cl)c3n(c2=O)CCCC3)CC1` ; retrieve measured pKi.
Response: 5.68

Query: Now consider `COc1ccccc1-c1c2n(c(=O)n(CCCCN3CCC(c4c(C)[nH]c5ccccc45)CC3)c1=O)CCCC2` .
Response: 5.80

Query: Now consider `COc1ccc2[nH]cc(C3CCN(CCCCn4c(=O)c(-c5ccc(F)cc5)c5n(c4=O)CCCC5)CC3)c2c1` .
Response: 7.86

Query: Now consider `Cc1ccccc1-c1c2n(c(=O)n(CCCCN3CCC(c4c[nH]c5ccccc45)CC3)c1=O)CCCC2` .
Response: 7.27

Query: Now consider `COc1ccc(-c2c3n(c(=O)n(CCCCN4CCC(c5c[nH]c6ccccc56)CC4)c2=O)CCCC3)cc1` .
Response: 7.69

Query: Now consider `Cc1[nH]c2ccccc2c1C1CCN(CCCCn2c(=O)c(-c3ccccc3F)c3n(c2=O)CCCC3)CC1` .
Response: 5.66

Query: Now consider `Cc1ccc(-c2c3n(c(=O)n(CCCCN4CCC(c5c[nH]c6ccccc56)CC4)c2=O)CCCC3)cc1` .
Response: 7.32

Query: Now consider `O=c1c(-c2ccccc2F)c2n(c(=O)n1CCCCN1CCC(c3c[nH]c4ccccc34)CC1)CCCC2` .
Response: 7.56
